Target or test system: intracellular GCN2 (phosphorylation of the GCN2 substrate eIF2α) (Homo sapiens, UniProt Q9P2K8)
Sequence (Q9P2K8 whole entry): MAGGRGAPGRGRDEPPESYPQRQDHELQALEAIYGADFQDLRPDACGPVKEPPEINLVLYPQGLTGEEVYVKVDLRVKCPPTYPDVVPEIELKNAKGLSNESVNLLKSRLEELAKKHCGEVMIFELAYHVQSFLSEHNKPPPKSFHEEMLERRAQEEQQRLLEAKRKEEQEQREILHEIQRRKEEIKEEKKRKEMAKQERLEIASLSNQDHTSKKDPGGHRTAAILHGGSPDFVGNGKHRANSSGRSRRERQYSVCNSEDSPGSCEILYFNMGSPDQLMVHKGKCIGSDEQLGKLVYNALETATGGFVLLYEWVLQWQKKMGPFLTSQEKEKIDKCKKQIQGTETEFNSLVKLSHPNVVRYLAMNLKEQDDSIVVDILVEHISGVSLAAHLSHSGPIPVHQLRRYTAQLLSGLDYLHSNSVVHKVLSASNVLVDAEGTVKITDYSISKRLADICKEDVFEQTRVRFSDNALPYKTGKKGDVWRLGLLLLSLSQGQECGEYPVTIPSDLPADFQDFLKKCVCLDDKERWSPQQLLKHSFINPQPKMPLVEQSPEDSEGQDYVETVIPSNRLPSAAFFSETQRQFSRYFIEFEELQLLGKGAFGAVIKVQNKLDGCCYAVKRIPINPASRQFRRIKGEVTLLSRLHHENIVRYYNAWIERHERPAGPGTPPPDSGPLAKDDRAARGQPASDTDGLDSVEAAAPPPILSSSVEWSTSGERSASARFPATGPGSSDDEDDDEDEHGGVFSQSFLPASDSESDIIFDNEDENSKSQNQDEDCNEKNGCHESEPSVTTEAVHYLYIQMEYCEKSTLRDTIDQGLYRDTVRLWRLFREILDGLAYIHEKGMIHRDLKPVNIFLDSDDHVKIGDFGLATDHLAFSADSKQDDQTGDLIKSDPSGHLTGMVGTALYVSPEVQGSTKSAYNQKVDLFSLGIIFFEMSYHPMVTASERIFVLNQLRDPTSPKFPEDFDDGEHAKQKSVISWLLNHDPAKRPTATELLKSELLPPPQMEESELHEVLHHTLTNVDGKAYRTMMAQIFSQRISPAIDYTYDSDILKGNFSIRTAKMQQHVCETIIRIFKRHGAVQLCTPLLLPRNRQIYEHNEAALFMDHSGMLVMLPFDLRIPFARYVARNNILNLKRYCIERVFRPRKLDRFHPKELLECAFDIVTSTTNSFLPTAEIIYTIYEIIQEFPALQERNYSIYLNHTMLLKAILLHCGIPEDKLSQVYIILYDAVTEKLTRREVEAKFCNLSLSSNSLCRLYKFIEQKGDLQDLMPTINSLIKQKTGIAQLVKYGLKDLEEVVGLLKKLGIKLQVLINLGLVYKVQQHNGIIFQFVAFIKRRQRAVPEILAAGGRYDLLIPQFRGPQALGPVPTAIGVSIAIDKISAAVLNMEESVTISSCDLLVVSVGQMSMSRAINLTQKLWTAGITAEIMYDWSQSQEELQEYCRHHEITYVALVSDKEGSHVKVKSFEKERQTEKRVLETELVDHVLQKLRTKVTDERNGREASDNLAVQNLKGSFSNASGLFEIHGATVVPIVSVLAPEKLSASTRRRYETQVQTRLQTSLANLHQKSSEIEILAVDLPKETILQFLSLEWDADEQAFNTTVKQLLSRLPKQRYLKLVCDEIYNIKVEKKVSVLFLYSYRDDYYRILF
Assay protocol: GCN2 cellular inhibition assay (AlphaScreen SureFire P-eIF2α Ser51, borrelidin-treated U2OS cells)
Format: cell-based
Condition: compounds of Formula II; biomarker assay, phosphorylated eIF2α Ser51 in borrelidin-treated U2OS cells
pIC50: −log10 of the molar value.
Endpoint name: pIC50

Compound	pIC50
NS(=O)(=O)CCC1CN(c2cc(-c3cnc4ccc(C(F)F)nn34)ncn2)CCO1 (stereo not shown)	5.30 to 6.30

Report pIC50 for every entry below.
1. CN(C1CCCN(c2cc(-c3cnc4ccc(C(F)F)nn34)ncn2)C1)S(C)(=O)=O (stereo not shown)
2. CC1CN(c2cc(-c3cnc4ccc(C(F)F)nn34)ncn2)CC(CNS(C)(=O)=O)O1 (stereo not shown) [II-32]
3. CC(NS(C)(=O)=O)C1CN(c2cc(-c3cnc4ccc(C(F)F)nn34)ncn2)CCO1 (stereo not shown) [II-177]

Reply |
1: 5.30 to 6.30; 2: > 6.30; 3: > 6.30

* * *

Target or test system: intracellular GCN2 (phosphorylation of the GCN2 substrate eIF2α) (Homo sapiens)
Assay protocol: GCN2 cellular inhibition assay (AlphaScreen SureFire P-eIF2α Ser51, borrelidin-treated U2OS cells)
Assay type: cell-based
Condition: compounds of Formula II; biomarker assay, phosphorylated eIF2α Ser51 in borrelidin-treated U2OS cells
pIC50: −log10 of the molar value.
Endpoint name: pIC50

Compound	pIC50
NS(=O)(=O)N1CC2CCCN(c3cc(-c4cnc5ccc(C(F)F)nn45)ncn3)C2C1 (stereo not shown) [II-335]	< 5.30
CS(=O)(=O)NC[C@H]1CCCN(c2cc(-c3cnc4ccc(C(F)(F)F)nn34)ncn2)C1 [II-291]	> 6.30
O=C1NCC2CN(c3cc(-c4cnc5ccc(C(F)F)nn45)ccn3)CCN12 (stereo not shown) [II-173]	5.30 to 6.30

Here's the next entry for you.
Ask | Return reported pIC50; argument: CC1CC(F)(F)C(CNS(C)(=O)=O)CN1c1cc(-c2cnc3ccc(C(F)F)nn23)ncn1 (single isomer, unassigned) [II-305]
Reply | < 5.30

* * *

Would you mind telling me the reported Ki of each entry?
Target or test system: GCN2 kinase (Homo sapiens, UniProt Q9P2K8)
Sequence (Q9P2K8 whole entry): as above
Assay protocol: GCN2 enzyme inhibition assay (Transcreener ADP2 fluorescence polarization)
Format: biochemical
Condition: Enzyme activity for compounds of Formula IV; Ki(app), 280 μM ATP, 25° C.

Compound	Recorded result
CC(=O)N1CCN(c2cncc(-c3cnc4cnc(C(N)=O)cn34)n2)CC1	100 to 1000 nM
CC1CN(c2nccc(-c3cnc4cnc(Br)cn34)n2)C(C)C(c2cn[nH]c2)N1 (single isomer, unassigned) [IV-403]	< 10 nM
CC(=O)N1CCN(c2cccc(-c3cnc4cnc(-n5cccn5)cn34)n2)CC1	< 10 nM
CC(=O)N1CCCN(c2ccnc(-c3cnc4cnc(C(N)=O)cn34)n2)CC1	100 to 1000 nM
CC1CN(c2ccnc(-c3cnc4cnc(Cl)cn34)n2)CC(c2cn[nH]c2)O1 (single isomer, unassigned) [IV-192]	< 10 nM

Report Ki for every entry below.
1. CC1CN(c2ccnc(-c3cnc4cnc(Br)cn34)n2)C(C)C(c2cn[nH]c2)N1 (single isomer, unassigned) [IV-287]
2. CS(=O)(=O)N1CCC2(CC1)CN(c1ccnc(-c3cnc4cnc(C(F)(F)F)cn34)n1)C2
3. FC(F)c1cn2c(-c3nccc(N4CCC(c5ccccn5)C4)n3)cnc2cn1 (centres unmarked)

Reply |
10 to 100 nM
100 to 1000 nM
100 to 1000 nM
